Cited source: patent US5100591A

experiment: physchem; conditions: dimethylacetamide, organic solvent or mixture, Solubility of amphotericin B in DMA
MEASUREMENT_TYPE: solubility (µg/mL)
Express your answer in µg/mL, writing the number without its unit.

Query block: What measured solubility goes with C[C@@H]1[C@H](O)[C@@H](C)/C=C/C=C/C=C/C=C/C=C/C=C/C=C/[C@H](O[C@@H]2O[C@H](C)[C@@H](O)[C@H](N)[C@@H]2O)C[C@@H]2O[C@](O)(C[C@@H](O)C[C@@H](O)[C@H](O)CC[C@@H](O)C[C@@H](O)CC(=O)O[C@H]1C)C[C@H](O)[C@H]2C(=O)O [amphotericin B] ?
Result block: 6000

* * *

experiment: physchem; details: ch3oh, neutral, organic solvent or mixture, Solubility of amphotericin B
MEASUREMENT_TYPE: solubility

Query block: What measured solubility goes with C[C@@H]1[C@H](O)[C@@H](C)/C=C/C=C/C=C/C=C/C=C/C=C/C=C/[C@H](O[C@@H]2O[C@H](C)[C@@H](O)[C@H](N)[C@@H]2O)C[C@@H]2O[C@](O)(C[C@@H](O)C[C@@H](O)[C@H](O)CC[C@@H](O)C[C@@H](O)CC(=O)O[C@H]1C)C[C@H](O)[C@H]2C(=O)O ?
Result block: 0.2 to 0.4 mg/mL

* * *

experiment: physchem; conditions: h2o, basic, Solubility of amphotericin B
MEASUREMENT_TYPE: solubility
Note: state the figure and append the unit.

Query block: What measured solubility goes with C[C@@H]1[C@H](O)[C@@H](C)/C=C/C=C/C=C/C=C/C=C/C=C/C=C/[C@H](O[C@@H]2O[C@H](C)[C@@H](O)[C@H](N)[C@@H]2O)C[C@@H]2O[C@](O)(C[C@@H](O)C[C@@H](O)[C@H](O)CC[C@@H](O)C[C@@H](O)CC(=O)O[C@H]1C)C[C@H](O)[C@H]2C(=O)O ?
Result block: 100 µg/mL

* * *

assay: physchem; details: ch3oh, acid, organic solvent or mixture, Solubility of amphotericin B
MEASUREMENT_TYPE: solubility

Query block: What measured solubility goes with C[C@@H]1[C@H](O)[C@@H](C)/C=C/C=C/C=C/C=C/C=C/C=C/C=C/[C@H](O[C@@H]2O[C@H](C)[C@@H](O)[C@H](N)[C@@H]2O)C[C@@H]2O[C@](O)(C[C@@H](O)C[C@@H](O)[C@H](O)CC[C@@H](O)C[C@@H](O)CC(=O)O[C@H]1C)C[C@H](O)[C@H]2C(=O)O ?
Result block: 3000 to 5000 µg/mL

* * *

test: physchem; conditions: h2o, acid, Solubility of amphotericin B
MEASUREMENT_TYPE: solubility (µg/mL)
Express your answer in µg/mL, writing the number without its unit.

Query block: What measured solubility goes with C[C@@H]1[C@H](O)[C@@H](C)/C=C/C=C/C=C/C=C/C=C/C=C/C=C/[C@H](O[C@@H]2O[C@H](C)[C@@H](O)[C@H](N)[C@@H]2O)C[C@@H]2O[C@](O)(C[C@@H](O)C[C@@H](O)[C@H](O)CC[C@@H](O)C[C@@H](O)CC(=O)O[C@H]1C)C[C@H](O)[C@H]2C(=O)O ?
Result block: 100

* * *

experiment: physchem; conditions: ch3oh + 1.5 eq. naoh, organic solvent or mixture, Solubility of topical grade amphotericin B
MEASUREMENT_TYPE: solubility (µg/mL)
Express your answer in µg/mL, writing the number without its unit.

Query block: What measured solubility goes with C[C@@H]1[C@H](O)[C@@H](C)/C=C/C=C/C=C/C=C/C=C/C=C/C=C/[C@H](O[C@@H]2O[C@H](C)[C@@H](O)[C@H](N)[C@@H]2O)C[C@@H]2O[C@](O)(C[C@@H](O)C[C@@H](O)[C@H](O)CC[C@@H](O)C[C@@H](O)CC(=O)O[C@H]1C)C[C@H](O)[C@H]2C(=O)O [amphotericin B] ?
Result block: 5000

* * *

test: physchem; conditions: dimethylformamide, acid, organic solvent or mixture, Solubility of amphotericin B
MEASUREMENT_TYPE: solubility

Query block: What measured solubility goes with C[C@@H]1[C@H](O)[C@@H](C)/C=C/C=C/C=C/C=C/C=C/C=C/C=C/[C@H](O[C@@H]2O[C@H](C)[C@@H](O)[C@H](N)[C@@H]2O)C[C@@H]2O[C@](O)(C[C@@H](O)C[C@@H](O)[C@H](O)CC[C@@H](O)C[C@@H](O)CC(=O)O[C@H]1C)C[C@H](O)[C@H]2C(=O)O ?
Result block: 60 to 80 mg/mL

* * *

assay: physchem; conditions: ch3oh + 1.0 eq. hcl, organic solvent or mixture, Solubility of i.v. grade amphotericin B
MEASUREMENT_TYPE: solubility

Query block: What measured solubility goes with C[C@@H]1[C@H](O)[C@@H](C)/C=C/C=C/C=C/C=C/C=C/C=C/C=C/[C@H](O[C@@H]2O[C@H](C)[C@@H](O)[C@H](N)[C@@H]2O)C[C@@H]2O[C@](O)(C[C@@H](O)C[C@@H](O)[C@H](O)CC[C@@H](O)C[C@@H](O)CC(=O)O[C@H]1C)C[C@H](O)[C@H]2C(=O)O [amphotericin B] ?
Result block: 5000 µg/mL

* * *

assay: physchem; details: ch3oh + 1.0 eq. naoh, organic solvent or mixture, Solubility of i.v. grade amphotericin B
MEASUREMENT_TYPE: solubility (µg/mL)
Express your answer in µg/mL, writing the number without its unit.

Query block: What measured solubility goes with C[C@@H]1[C@H](O)[C@@H](C)/C=C/C=C/C=C/C=C/C=C/C=C/C=C/[C@H](O[C@@H]2O[C@H](C)[C@@H](O)[C@H](N)[C@@H]2O)C[C@@H]2O[C@](O)(C[C@@H](O)C[C@@H](O)[C@H](O)CC[C@@H](O)C[C@@H](O)CC(=O)O[C@H]1C)C[C@H](O)[C@H]2C(=O)O ?
Result block: 5000
